All values here come from patent US20240218071A1.

# System: T1, P17-His protein (human CD40 antigen) (human, UniProt P25942 21-193, limits assumed)
# T1 construct: also called human CD40 antigen (P17-His)
# T1 sequence (P25942 other isoform, or with tags, fused parts or gaps limits assumed): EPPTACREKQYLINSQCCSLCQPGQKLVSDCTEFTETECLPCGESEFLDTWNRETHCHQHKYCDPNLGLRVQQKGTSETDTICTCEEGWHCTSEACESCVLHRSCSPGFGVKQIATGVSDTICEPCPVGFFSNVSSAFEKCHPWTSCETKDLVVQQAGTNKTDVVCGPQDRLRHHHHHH
# Assay explanation: BLI (Fortebio Octet RED96), antibody on Protein A sensor, P17-His 5-40 nM
Mark label 1 only for koff values smaller than 0.008 s⁻¹; exact matches and larger values are label 0.

Binder	Classification
APX005M (antibody, V domains shown) VH: QVQLVESGGGVVQPGRSLRLSCAASGFSFSSTYVCWVRQAPGKGLEWIACIYTGDGTNYSASWAKGRFTISKDSSKNTVYLQMNSLRAEDTAVYFCARPDITYGFAINFWGPGTLVTVSS VL: DIQMTQSPSSLSASVGDRVTIKCQASQSISSRLAWYQQKPGKPPKLLIYRASTLASGVPSRFSGSGSGTDFTLTISSLQPEDVATYYCQCTGYGISWPIGGGTKVEIK	label 0
C8-4 antibody (antibody, V domains shown) VH: EVQLLESGGGLVRPGGSLRLSCAASGFTFGSYEMNWVRQAPGKGLEWVSYISSSGETTDYADSVKGRFTVSRDNSKNLLYLQMNSLRAEDTAVYYCARDVFFFDSSGPRGAYGMDVWGQGTMVTVSS VL: DIQLTQSPSSLTASVGDRVTITCRSSQGIRSSLAWYQQKPGKPPKLLIYGASSLEGGVPSRFSGSGSGTDFTLTISSLQPEDFATYYCQQLNSFPSTFGQGTKLEIK	label 1
C8-1 antibody (antibody, V domains shown) VH: EVQLLESGGGLVRPGGSLRLSCAASGFTFGSYEMNWVRQAPGKGLEWVSYISSSGETTDYADSVKGRFTVSRDNSKNLLYLQMNSLRAEDTAVYYCARDVFFFDSSGDNGAYGMDVWGQGTMVTVSS VL: DIQLTQSPSSLTASVGDRVTITCRSSQGIRSSLAWYQQKPGKPPKLLIYGASSLEGGVPSRFSGSGSGTDFTLTISSLQPEDFATYYCQQLASFPSTFGQGTKLEIK	label 0
C8-9 antibody (antibody, V domains shown) VH: EVQLLESGGGLVRPGGSLRLSCAASGFTFGSYEMNWVRQAPGKGLEWVSYISSSGETTDYADSVKGRFTVSRDNSKNLLYLQMNSLRAEDTAVYYCARDVFFFDSSRPNGAYGMDVWGQGTMVTVSS VL: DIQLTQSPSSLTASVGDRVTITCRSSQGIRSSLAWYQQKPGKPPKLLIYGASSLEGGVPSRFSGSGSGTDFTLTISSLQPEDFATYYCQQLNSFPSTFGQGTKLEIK	label 0
